The entries below are paired with their reported log10 of CC50 at 18 h.
experiment: Cytotoxicity against African green monkey Vero cells assessed as reduction in cell viability after 18 hrs by […]; type: cell-based; conditions: chlorocebus sabaeus
Values are log10 of CC50 at 18 h in µM.

Task: Look up log10 of CC50 at 18 h for this molecule: Cc1ccc(S(=O)(=O)Oc2ccc3c(CSc4nc5ccc(C)cc5c(=O)[nH]4)cc(=O)oc3c2)cc1
Result: 2.06

Task: Then what about the molecule O=C1CCN=C(SCc2cc(=O)oc3cc(OS(=O)(=O)c4ccc(F)cc4)ccc23)N1 ?
Result: 2.05

Task: Then what about the molecule O=c1cc(CSc2nc3ccccc3c(=O)[nH]2)c2ccc(OS(=O)(=O)c3ccccc3[N+](=O)[O-])cc2o1 ?
Result: 2.16

Task: Then what about the molecule Cc1ccc2nc(SCc3cc(=O)oc4cc(OS(=O)(=O)c5ccc(F)cc5)ccc34)[nH]c(=O)c2c1 ?
Result: 1.94

Task: Then what about the molecule Cc1ccc(S(=O)(=O)Oc2ccc3c(CSc4nc5ccccc5c(=O)[nH]4)cc(=O)oc3c2)cc1 ?
Result: 2.07

New cases:
Task: Look up log10 of CC50 at 18 h for this molecule: Cc1ccc2nc(SCc3cc(=O)oc4cc(OS(=O)(=O)c5ccccc5[N+](=O)[O-])ccc34)[nH]c(=O)c2c1
Result: 2.03

Task: Then what about the molecule O=C1CCN=C(SCc2cc(=O)oc3cc(OS(=O)(=O)c4ccccc4[N+](=O)[O-])ccc23)N1 ?
Result: 1.88

Task: Then what about the molecule O=c1cc(CSc2nc3ccccc3c(=O)[nH]2)c2ccc(OS(=O)(=O)c3ccc(F)cc3)cc2o1 ?
Result: 1.48

Task: Then what about the molecule O=c1cc(CSc2nc3ccccc3c(=O)[nH]2)c2ccc(OS(=O)(=O)c3ccc([N+](=O)[O-])cc3)cc2o1 ?
Result: 2.07

Task: Then what about the molecule Cc1ccc2nc(SCc3cc(=O)oc4cc(OS(=O)(=O)c5ccccc5)ccc34)[nH]c(=O)c2c1 ?
Result: 2.10

Task: Then what about the molecule Cc1cnc(SCc2cc(=O)oc3cc(OCc4ccc(F)cc4)ccc23)[nH]c1=O ?
Result: 2.02

Task: Then what about the molecule O=c1ccnc(SCc2cc(=O)oc3cc(OCc4ccc([N+](=O)[O-])cc4)ccc23)[nH]1 ?
Result: 1.14

Task: Then what about the molecule Cc1ccc(S(=O)(=O)Oc2ccc3c(CSC4=NCCC(=O)N4)cc(=O)oc3c2)cc1 ?
Result: 1.78

Task: Then what about the molecule Cc1ccc(COc2ccc3c(CSc4nc5ccccc5c(=O)[nH]4)cc(=O)oc3c2)cc1 ?
Result: 2.01

Task: Then what about the molecule O=c1cc(CSc2nc3ccccc3c(=O)[nH]2)c2ccc(OS(=O)(=O)c3ccccc3)cc2o1 ?
Result: 2.25
